Cited source: patent US20210301012A1

Molecular target: T1, IL-6-gp80 complex (human, UniProt P05231 28-212; P08887 20-358)
T1 construct: Non-covalent transient heterodimer formed by mixing IL-6 and gp80
Assay: SPR (BIAcore 3000), His-tagged VHH captured from supernatant on Ni-NTA chip, equimolar IL-6 + gp80 (50 nM each) injected
koff vs 0.001 s⁻¹: at or above is TRUE, below is FALSE.

Q: Please check the record VHH6 N74A S101A (VHH, Tested as ExpiHEK supernatant; also called Asn74Ala/Ser101Ala; 74/101 double mutant; not shown: C-terminal His tag (captured on NTA chip)) VHH: DVQFVESGGGSVHAGGSLRLNCATSGYIYSTYCMGWFRQAPGKEREGVAHIYTNSGRTYYADSVKGRFTISQDAAKNTVYLQMNSLKPEDTAIYYCAARPAIRCASFSATEYKDWGQGTQVTVSS and state if its koff is at or above 0.001 s⁻¹.
Result: TRUE

Q: Is the recorded value of koff equal to or greater than 0.001 s⁻¹ for this binder? VHH6 K113S S101A (VHH, The text describes only alanine substitutions; not shown: C-terminal His tag (captured on NTA chip)) VHH: DVQFVESGGGSVHAGGSLRLNCATSGYIYSTYCMGWFRQAPGKEREGVAHIYTNSGRTYYADSVKGRFTISQDNAKNTVYLQMNSLKPEDTAIYYCAARPAIRCASFSATEYSDWGQGTQVTVSS
Result: TRUE

Q: Reported koff reaches at least 0.001 s⁻¹ for VHH6 K113A S101A (VHH, Tested as ExpiHEK supernatant; also called Ser101Ala/Lys113Ala; 113/101 double mutant; not shown: C-terminal His tag (captured on NTA chip)) VHH: DVQFVESGGGSVHAGGSLRLNCATSGYIYSTYCMGWFRQAPGKEREGVAHIYTNSGRTYYADSVKGRFTISQDNAKNTVYLQMNSLKPEDTAIYYCAARPAIRCASFSATEYADWGQGTQVTVSS ?
Result: TRUE

Q: Could you please find out whether VHH6 (VHH, Camel single domain antibody expressed in Expi-HEK cells; The His tag was used for capture in Octet and in the NTA-chip SPR; also called wtVHH6; VHH6-6His; not shown: C-terminal TEV site and 6His tag (VHH6-6His)) VHH: DVQFVESGGGSVHAGGSLRLNCATSGYIYSTYCMGWFRQAPGKEREGVAHIYTNSGRTYYADSVKGRFTISQDNAKNTVYLQMNSLKPEDTAIYYCAARPSIRCASFSATEYKDWGQGTQVTVSS has koff that meets 0.001 s⁻¹ or exceeds it?
Result: FALSE

Q: Form field: koff at least 0.001 s⁻¹? Entry: VHH6 Y27A Y32A (VHH, Tested as ExpiHEK supernatant; also called 27/32 double mutant; not shown: C-terminal His tag (captured on NTA chip)) VHH: DVQFVESGGGSVHAGGSLRLNCATSGAIYSTACMGWFRQAPGKEREGVAHIYTNSGRTYYADSVKGRFTISQDNAKNTVYLQMNSLKPEDTAIYYCAARPSIRCASFSATEYKDWGQGTQVTVSS
Result: FALSE
